Tested on: TFEB
Test details: TFEB nuclear translocation assay, HeLa wt cells
Format: cell-based
Condition description: Homo sapiens, HeLa, 2 h, 2 hrs compound treatment, Table 1 does not say HeLa wt or TRPML1 KO
# reported AC50; entries follow
Property measured: AC50

>>> result("CS(=N)(=O)c1ccc(S(=O)(=O)Nc2ccccc2N2CCC(O)(c3ccc(Cl)cc3F)CC2)cc1 (stereo not shown) [Compound A-152]")
"≥ 10 µM"
>>> result("O=S(=O)(Nc1ccccc1N1CCC(c2ccc(Cl)cc2F)CC1)c1cc(F)ccc1F [Compound A-82]")
"≥ 10 µM"
>>> result("COc1ccc(S(=O)(=O)Nc2cnccc2N2CCC(c3ncc(F)cc3F)CC2)cc1 [Compound A-193]")
"≥ 10 µM"
>>> result("CN(C)S(=O)(=O)c1ccc(S(=O)(=O)n2ccc(C3CCN(c4ncc(Cl)cc4F)CC3)n2)cc1 [Compound A-96]")
"≥ 10 µM"
>>> result("CN(C)S(=O)(=O)c1ccc(S(=O)(=O)Nc2ccccc2N2CC(c3ccc(Cl)cc3)C2)cc1 [Compound A-56]")
"2.01 to 8 µM"
>>> result("CN(C)S(=O)(=O)c1ccc(S(=O)(=O)Nc2ccccc2N2CCN(C(=O)C3(F)CC3)CC2)cc1 [Compound A-461]")
"2.01 to 8 µM"
>>> result("CN(C)S(=O)(=O)c1ccc(S(=O)(=O)Nc2ccccc2N2CC3(CN(c4ccc(Cl)cc4F)C3)C2)cc1 [Compound A-296]")
"2.01 to 8 µM"

====

Tested on: TFEB
Test details: TFEB nuclear translocation assay, HeLa wt cells
Type: cell-based
Condition description: Homo sapiens, HeLa, 2 h, 2 hrs compound treatment, Table 1 does not say HeLa wt or TRPML1 KO
Property measured: AC50

>>> result("Cn1nccc1S(=O)(=O)Nc1ccccc1N1CCN(c2ccc(Cl)cc2F)CC1 [Compound A-15]")
"≥ 10 µM"
>>> result("CNC(=O)c1ccc(S(=O)(=O)Nc2ccccc2N2CCC(c3ccc(Cl)cc3F)CC2)cc1 [Compound A-48]")
"≥ 10 µM"
>>> result("CC(c1cccc(F)c1N1CCCCC1)S(=O)(=O)c1ccc2c(c1)CCS2(=N)=O (single isomer, unassigned) [Compound A-959]")
"≥ 10 µM"
>>> result("CN(C)S(=O)(=O)c1ccc(S(=O)(=O)Nc2cccc(C(F)F)c2N2CCC3(CC2)COC(C)(C)C3)cc1 [Compound A-753]")
"≤ 2 µM"
>>> result("CCC(C)(C)N1CCN(c2ccccc2NS(=O)(=O)c2ccc(S(=O)(=O)N(C)C)cc2)CC1 [Compound A-455]")
"2.01 to 8 µM"
>>> result("CN(C)S(=O)(=O)c1ccc(S(=O)(=O)Nc2ccccc2N2CCC(C(N)=O)(c3ccc(F)cc3F)CC2)cc1 [Compound A-163]")
"≥ 10 µM"
>>> result("CC(C)(C)C(=O)N1CCN(c2ccccc2NS(=O)(=O)c2ccc(C(C)(F)F)cc2)CC1 [Compound A-590]")
"2.01 to 8 µM"
>>> result("COc1ccc(S(=O)(=O)Nc2ccccc2N2CCC(Cc3ccc(F)cc3F)CC2)cc1 [Compound A-195]")
"2.01 to 8 µM"
>>> result("O=S(=O)(Nc1cccc(Cl)c1N1CCCCC1)c1ccc(C2(C(F)(F)F)N=N2)cc1 [Compound A-749]")
"2.01 to 8 µM"
>>> result("CN(C)S(=O)(=O)c1ccc(S(=O)(=O)N2CCN(C3CCN(c4ccc(Cl)cc4F)CC3)C2=O)cc1 [Compound A-86]")
"≥ 10 µM"
>>> result("CN(C)S(=O)(=O)c1ccc(S(=O)(=O)Nc2ccccc2N2CCC(CN3CCOCC3)CC2)cc1 [Compound A-554]")
"≤ 2 µM"
>>> result("Cc1ccc(S(=O)(=O)Nc2ccccc2N2CCC(c3ccc(Cl)cc3F)CC2)cc1 [Compound A-72]")
"≤ 2 µM"
>>> result("CN(C)S(=O)(=O)c1ccc(C(Nc2ccccc2N2CCC(c3ccc(Cl)cc3F)CC2)C(F)(F)F)cc1 (stereo not shown) [Compound A-170]")
"≤ 2 µM"
>>> result("C[C@H](c1cccc(F)c1N1CCC(C2(N3CCOCC3)CC2)CC1)S(=O)(=O)c1ccc(S(=N)(=O)N(C)C)cc1 (single isomer, unassigned) [Compound A-892]")
"8.01 to 9.99 µM"
>>> result("CC(=O)NC1(C)CCN(c2c(F)cccc2NS(=O)(=O)c2ccc(S(=O)(=O)N(C)C)cc2)CC1 [Compound A-795]")
"8.01 to 9.99 µM"
>>> result("Cn1ccc2cc(S(=O)(=O)Nc3ccccc3N3CCN(C(=O)C(C)(C)C)CC3)ccc21 [Compound A-515]")
"2.01 to 8 µM"
>>> result("CN1CCN(c2ccccc2NS(=O)(=O)c2ccc(S(=O)(=O)N(C)C)cc2)CC1 [Compound A-54]")
"≥ 10 µM"
>>> result("CN1CCN(S(=O)(=O)c2ccc(S(=O)(=O)Nc3ccccc3N3CCC(c4c(F)cccc4F)CC3)cc2)CC1 [Compound A-220]")
"≥ 10 µM"
>>> result("CS(=O)(=O)c1ccc(S(=O)(=O)Nc2ccccc2N2CCC3(CC2)CN(C(=O)OC2CCOC2)c2cc(F)ccc23)cc1 (stereo not shown) [Compound A-469]")
"≤ 2 µM"
>>> result("Cc1nn(S(=O)(=O)c2ccc(S(=O)(=O)N(C)C)cc2)cc1N1CCC(c2ccc(Cl)cc2F)CC1 [Compound A-50]")
"2.01 to 8 µM"
>>> result("COCC1(C)CCN(c2ccccc2NS(=O)(=O)Cc2ccccc2)CC1 [Compound A-532]")
"≤ 2 µM"
>>> result("CN(C)S(=O)(=O)c1ccc(S(=O)(=O)Nc2ccccc2N2CCN(C(=O)C34CCC(CC3)C4)CC2)cc1 [Compound A-460]")
"≤ 2 µM"
>>> result("CN(C)S(=O)(=O)c1ccc(S(=O)(=O)Nc2ccccc2N2CCC(C(=O)Nc3ccccc3)CC2)cc1 [Compound A-338]")
"2.01 to 8 µM"
>>> result("CN(CC(C)(C)O)S(=O)(=O)c1ccc(S(=O)(=O)Nc2ccccc2N2CCC(c3c(F)cccc3F)CC2)cc1 [Compound A-224]")
"≥ 10 µM"
>>> result("COCC1(C)CCN(c2ccccc2C(C)S(=O)(=O)c2ccc(S(=O)(=O)N(C)C)cc2)CC1 (single isomer, unassigned; enantiomer 1) [Compound A-698]")
"≤ 2 µM"

====

System: TFEB
Test details: TFEB nuclear translocation assay, HeLa wt cells
Type: cell-based
Condition description: Homo sapiens, HeLa, 2 h, 2 hrs compound treatment, Table 1 does not say HeLa wt or TRPML1 KO
Property measured: AC50

>>> result("CN(C)S(=O)(=O)c1ccc(S(=O)(=O)Nc2cccc(F)c2N2CCC(CN3CCC(F)(F)CC3)CC2)cc1")
"≤ 2 µM"
>>> result("CNC(=O)c1cccc(NS(=O)(=O)c2ccc(S(=O)(=O)N(C)C)cc2)c1N1CCCCC1")
"≥ 10 µM"
>>> result("CC1(C)CC2(CCN(c3ccccc3NS(=O)(=O)c3cccc(C4OCCO4)c3)CC2)CO1")
"2.01 to 8 µM"
>>> result("Cc1ccc(S(=O)(=O)Nc2ccccc2N2CCN(C(=O)C(=O)c3ccccc3)CC2)cc1")
"2.01 to 8 µM"
>>> result("CC(C)(C)C(=O)N1CCN(c2ccccc2NS(=O)(=O)c2ccc(OCC(F)(F)F)cc2)CC1")
"≥ 10 µM"
>>> result("CC1(C)CC2(CCN(c3ccccc3NS(=O)(=O)c3ccc4c(c3)CCOC4)CC2)CO1")
"2.01 to 8 µM"
>>> result("CP(C)(=O)c1ccc(S(=O)(=O)Nc2ccccc2N2CCC(c3ccc(F)cc3F)CC2)cc1")
"≥ 10 µM"
>>> result("CN(C)S(=O)(=O)c1ccc(S(=O)(=O)Nc2ccccc2N2C3CCC2CN(C(=O)C(C)(C)C)C3)cc1")
"≥ 10 µM"
>>> result("CC(c1cccc(F)c1N1CCC(CN2C3CCC2COC3)CC1)S(=O)(=O)c1ccc(C(F)F)cc1 (stereo not drawn)")
"≤ 2 µM"
>>> result("Cc1ccc([S+]([O-])Cc2ccccc2N2CCC(c3ccc(Cl)cc3F)CC2)cc1 (stereo not drawn)")
"≥ 10 µM"
>>> result("CN(C)S(=O)(=O)c1ccc(S(=O)(=O)Nc2ccccc2N2CCN(c3ccc(Cl)cc3F)CC2=O)cc1")
"≥ 10 µM"
>>> result("CN1CCN(CCCS(=O)(=O)Nc2ccccc2N2CCN(C(=O)C(C)(C)C)CC2)CC1")
"2.01 to 8 µM"

====

Test system: TFEB
Test details: TFEB nuclear translocation assay, HeLa wt cells
Format: cell-based
Condition description: Homo sapiens, HeLa, 2 h, 2 hrs compound treatment, Table 1 does not say HeLa wt or TRPML1 KO
Property measured: AC50

>>> result("O=S(=O)(Nc1ccccc1N1CCC(c2ccc(Cl)cc2F)CC1)c1ccc(C(O)C(F)(F)F)cc1 (stereo not shown)")
"≤ 2000 nM"
>>> result("COCC1(C)CCN(c2ccccc2C(C)S(=O)(=O)c2ccc(S(=O)(=O)N(C)C)cc2)CC1 (stereo not shown) [Compound A-491]")
"≤ 2000 nM"
>>> result("O=S(=O)(Nc1cccc(N2CCC(c3ccc(Cl)cc3F)CC2)c1)c1ccccc1F")
"≥ 10000 nM"
>>> result("CN1CCc2ccccc2C12CCN(c1ccccc1NS(=O)(=O)c1ccc(S(C)(=O)=O)cc1)CC2")
"2010 to 8000 nM"
>>> result("O=C(c1ccc(S(=O)(=O)Nc2ccccc2N2CCC(c3ccc(Cl)cc3F)CC2)cc1)C(F)(F)F")
"2010 to 8000 nM"
>>> result("CN(C)S(=O)(=O)c1ccc(S(=O)(=O)Nc2ccccc2N2CCC(CNC(C)(C)C)CC2)cc1")
"≤ 2000 nM"
>>> result("CN(C)S(=O)(=O)c1ccc(S(=O)(=O)Nc2ccccc2N2CCN(C(=O)C3CC(F)(F)C3)CC2)cc1")
"2010 to 8000 nM"
>>> result("CC(C)(C)C(=O)N1CCN(c2ccccc2NS(=O)(=O)Cc2ccc3ccccc3c2)CC1")
"2010 to 8000 nM"
>>> result("O=S1(=O)c2ccccc2CN1c1ccccc1N1CCC(c2ccc(Cl)cc2F)CC1")
"2010 to 8000 nM"
>>> result("COCC1(C)CCN(c2ccccc2NS(=O)(=O)Cc2ccccc2F)CC1")
"2010 to 8000 nM"
>>> result("CN(C)S(=O)(=O)c1ccc(S(=O)(=O)Nc2cc(Cl)ccc2N2CCOCC2)nc1")
"≥ 10000 nM"
>>> result("CN1c2ccccc2N(S(=O)(=O)c2ccc(S(=O)(=O)N(C)C)cc2)CC1c1ccc(Cl)cc1F (stereo not shown)")
"≤ 2000 nM"
>>> result("CN1CC2(CCN(c3c(F)cccc3NS(=O)(=O)c3ccc(S(=O)(=O)N(C)C)cc3)CC2)OC1=O")
"2010 to 8000 nM"

The reported measurements were obtained from patent US20230104936A1.
